B1: 3-isopropylmalate dehydrogenase, P50455 (parent)
chain: MGFTVALIQGDGIGPEIVSKSKRILAKINELYSLPIEYIEVEAGDRALARYGEALPKDSLKIIDKADIILKGPVGESAADVVVKLRQIYDMYANIRPAKSIPGIDTKYGNVDILIVRENTEDLYKGFEHIVSDGVAVGMKIITRFASERIAKVGLNFALRRRKKVTCVHKANVMRITDGLFAEACRSVLKGKVEYSEMYVDAAAANLVRNPQMFDVIVTENVYGDILSDEASQIAGSLGIAPSANIGDKKALFEPVHGAAFDIAGKNIGNPTAFLLSVSMMYERMYELSNDDRYIKASRALENAIYLVYKERKALTPDVGGNATTDDLINEIYNKLG

variants of: B1; conditions: Sulfurisphaera tokodaii (strain DSM 16993 / JCM 10545 / NBRC 100140 / 7); pH 7; Thermal; CD; Potassium phosphate 20 mM; structure 1WPW; whole UniProt chain shown
Collected Tm values appear next to each entry.

variantString: K152R
Tm / °C: 95.6
--
variantString: M91L I95L
Tm / °C: 99.2
--
variantString: K152R G154A
Tm / °C: 97.2
--
variantString: G154A
Tm / °C: 97.9
